# TARGET_OR_TEST_SYSTEM: human mGluR3 (hmGluR3) (Homo sapiens, UniProt Q14832)
# Sequence (Q14832 23-879): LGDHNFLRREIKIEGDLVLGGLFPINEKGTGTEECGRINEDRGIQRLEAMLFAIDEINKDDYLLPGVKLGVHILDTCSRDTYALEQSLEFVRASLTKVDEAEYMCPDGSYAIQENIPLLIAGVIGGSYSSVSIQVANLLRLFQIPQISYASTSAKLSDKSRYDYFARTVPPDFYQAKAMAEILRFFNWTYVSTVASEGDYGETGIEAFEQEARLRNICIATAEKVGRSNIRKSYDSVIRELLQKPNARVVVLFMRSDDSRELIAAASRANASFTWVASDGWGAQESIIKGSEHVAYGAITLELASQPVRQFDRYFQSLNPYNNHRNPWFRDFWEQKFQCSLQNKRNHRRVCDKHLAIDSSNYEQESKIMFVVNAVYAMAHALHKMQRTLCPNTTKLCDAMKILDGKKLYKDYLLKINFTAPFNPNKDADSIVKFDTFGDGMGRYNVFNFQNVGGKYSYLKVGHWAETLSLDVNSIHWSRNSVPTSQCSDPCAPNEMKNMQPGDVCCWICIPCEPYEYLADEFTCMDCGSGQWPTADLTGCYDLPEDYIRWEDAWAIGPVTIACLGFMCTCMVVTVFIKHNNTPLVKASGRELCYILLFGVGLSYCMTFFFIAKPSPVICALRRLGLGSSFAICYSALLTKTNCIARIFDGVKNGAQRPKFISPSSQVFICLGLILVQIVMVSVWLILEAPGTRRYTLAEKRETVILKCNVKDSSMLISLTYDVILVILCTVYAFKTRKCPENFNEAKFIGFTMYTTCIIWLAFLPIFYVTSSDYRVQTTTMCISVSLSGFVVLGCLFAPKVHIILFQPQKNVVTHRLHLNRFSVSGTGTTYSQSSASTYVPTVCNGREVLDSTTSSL
# ASSAY_SUMMARY: mGluR3 negative allosteric modulator activity
// reported IC50 per item
REPORTED_METRIC: IC50

SMI	REPORTED_METRIC	RESULT
CCn1c(=O)c2ccc(-c3ccc(N)nc3)cc2n2nc(C3CCCC3)cc12.Cl	IC50	< 1 µM
Cn1c(=O)c2ccc(-c3cccc(C(=O)O)c3)cc2n2nc(-c3ccccc3)cc12	IC50	< 1 µM

====

Where a name gives a salt, the structure may show the parent alone.
// reported melting point per item

MOLECULE	melting point
Cn1c(=O)c2ccc(-c3cn[nH]c3)cc2n2nc(-c3ccccc3)cc12	> 250 °C
CC(C)n1c(=O)c2ccc(-c3ccc(N)nc3)cc2n2nc(-c3ccccc3)cc12.Cl	214 to 216 °C
Cc1cc(N)ncc1-c1ccc2c(=O)n(C)c3cc(-c4ccccc4)nn3c2c1.Cl	235 to 240 °C
Cc1cc(-c2cc3n(C)c(=O)c4ccc(-c5cccnc5)cc4n3n2)cc(C)n1 (as salt: salt)	> 250 °C
Cl.Cn1c(=O)c2ccc(-c3cnc(N)cn3)cc2n2nc(-c3ccccc3)cc12	192 to 193 °C
Cc1cc(-c2cc3n(C)c(=O)c4ccc(-c5cnn(C)c5)cc4n3n2)cc(C)n1.Cl	> 250 °C
CCCn1c(=O)c2ccc(-c3ccc(N)nc3)cc2n2nc(C3CCCC3)cc12.Cl	> 250 °C
Cc1cc(-c2ccc3c(=O)n(C)c4cc(-c5ccccc5)nn4c3c2)cc(C)n1.Cl	> 250 °C
Cl.Cn1c(=O)c2ccc(-c3ccc(N)nn3)cc2n2nc(C3CCOCC3)cc12	140 to 146 °C
Cn1c(=O)c2ccc(-c3cccc(C(=O)O)c3)cc2n2nc(-c3ccccc3)cc12	> 250 °C
Cn1c(=O)c2ccc(-c3c[nH]nc3C(F)(F)F)cc2n2nc(-c3ccccc3)cc12	> 250 °C
Cn1c(=O)c2ccc(-c3cccc(C#N)c3)cc2n2nc(-c3ccccc3)cc12	> 250 °C
Cn1c(=O)c2ccc(-c3cc[nH]n3)cc2n2nc(-c3ccccc3)cc12	245 to 249 °C
Cc1cncc(-c2ccc3c(=O)n(C)c4cc(-c5cc(C)nc(C)c5)nn4c3c2)c1 (as salt: salt)	> 250 °C
Cl.Cn1c(=O)c2ccc(-c3ccc(N)nc3)cc2n2nc(C3CCC3)cc12	> 250 °C
Cl.Cn1c(=O)c2ccc(-c3ccc(N)nc3)cc2n2nc(-c3ccc(F)cc3)cc12	> 250 °C
Cn1c(=O)c2ccc(-c3ccc(S(N)(=O)=O)cc3)cc2n2nc(-c3ccccc3)cc12	> 250 °C

====

Where a name gives a salt, the structure may show the parent alone.
// reported melting point per item
REPORTED_METRIC: melting point

COMPOUND	RESULT
COCc1cc2n(C)c(=O)c3ccc(-c4cc(C)nc(C)c4)cc3n2n1.Cl	> 250 °C
CCCn1c(=O)c2ccc(-c3ccc(N)nc3)cc2n2nc(-c3ccccc3)cc12.Cl	> 250 °C
CCc1ncccc1-c1ccc2c(=O)n(C)c3cc(-c4cc(C)nc(C)c4)nn3c2c1 (as salt: salt)	> 250 °C
Cc1ncccc1-c1ccc2c(=O)n(C)c3cc(-c4cccnc4)nn3c2c1 (as salt: salt)	> 250 °C
Cc1cc(-c2ccc3c(=O)n(C)c4cc(-c5cc(C)nc(C)c5)nn4c3c2)cc(C)n1 (as salt: salt)	> 250 °C
Cl.Cn1c(=O)c2ccc(-c3ccc(N)nc3)cc2n2nc(-c3ccco3)cc12	218 to 229 °C
Cc1ccc(-c2ccc3c(=O)n(C)c4cc(-c5ccnc(C(F)(F)F)c5)nn4c3c2)c(C)n1.Cl	> 250 °C
CCn1c(=O)c2ccc(-c3ccc(N)nc3)cc2n2nc(-c3ccccc3)cc12.Cl	207 to 208 °C
Cl.Cn1c(=O)c2ccc(-c3ccc(N)nc3)cc2n2nc(C3CCSCC3)cc12	> 250 °C
Cn1c(=O)c2ccc(-c3ncco3)cc2n2nc(-c3ccccc3)cc12	228 to 231 °C
Cl.Cn1c(=O)c2ccc(-c3ccc(N)nc3)cc2n2nc(C3CCCC3)cc12	> 250 °C
Cc1cc(-c2ccc3c(=O)n(C)c4cc(C5CCCCO5)nn4c3c2)cc(C)n1.Cl (stereo not drawn)	186 to 194 °C
Cc1cc(-c2cc3n(C)c(=O)c4ccc(-c5ccn[nH]5)cc4n3n2)cc(C)n1.Cl	> 250 °C
Cl.Cn1cc(-c2cc3n(C)c(=O)c4ccc(-c5cccnc5)cc4n3n2)cn1	> 250 °C
Cc1ncncc1-c1ccc2c(=O)n(C)c3cc(-c4ccnc(C(F)(F)F)c4)nn3c2c1.Cl	> 250 °C
Cc1cc(-c2ccc3c(=O)n(C)c4cc(C5CCCC5)nn4c3c2)cc(C)n1.Cl	> 250 °C
Cl.Cn1c(=O)c2ccc(-c3ccc(N)nc3)cc2n2nc(C3CCOCC3)cc12	> 250 °C
Cn1c(=O)c2ccc(-c3cnco3)cc2n2nc(-c3ccccc3)cc12	222 to 225 °C
Cn1cc(-c2ccc3c(=O)n(C)c4cc(-c5ccccc5)nn4c3c2)cn1	> 250 °C
Cn1c(=O)c2ccc(-c3cccnc3C(F)(F)F)cc2n2nc(-c3ccnc(C(F)(F)F)c3)cc12	> 250 °C
Cc1cc(-c2cc3n(C)c(=O)c4ccc(-c5cccnc5C)cc4n3n2)cc(C)n1 (as salt: salt)	> 250 °C
CCn1c(=O)c2ccc(-c3ccc(N)nc3)cc2n2nc(CCOC)cc12.Cl	163 to 170 °C
Cc1cc(-c2cc3n(C)c(=O)c4ccc(-c5cc(C)nc(C)c5)cc4n3n2)ccn1 (as salt: salt)	> 250 °C
Cc1cc(-c2ccc3c(=O)n(CC(F)(F)F)c4cc(C5CCOCC5)nn4c3c2)cc(C)n1.Cl	> 250 °C
CN(C)S(=O)(=O)c1cccc(-c2ccc3c(=O)n(C)c4cc(-c5ccccc5)nn4c3c2)c1	202 to 204 °C
Cl.Cn1c(=O)c2ccc(-c3cnc(N)nc3)cc2n2nc(-c3ccccc3)cc12	> 250 °C
Cl.Cn1c(=O)c2ccc(-c3ccc(N)nc3)cc2n2nc(Cc3ccccc3)cc12	> 250 °C
Cc1n[nH]cc1-c1ccc2c(=O)n(C)c3cc(-c4ccc(F)cc4)nn3c2c1	> 250 °C
Cc1cc(-c2ccc3c(=O)n(CC(F)F)c4cc(C5CCOCC5)nn4c3c2)cc(C)n1.Cl	> 250 °C
Cc1cc(-c2cc3n(C)c(=O)c4ccc(-c5c(C)n[nH]c5C)cc4n3n2)cc(C)n1.Cl	> 250 °C
Cl.Cn1c(=O)c2ccc(-c3ccncc3)cc2n2nc(C3CCOCC3)cc12	218 to 223 °C
Cn1c(=O)c2ccc(-c3cccc(C#N)c3)cc2n2nc(C3CCOCC3)cc12	210 to 216 °C
CC(C)Cn1c(=O)c2ccc(-c3cccc(S(=O)(=O)N(C)C)c3)cc2n2nc(-c3ccccc3)cc12	159 to 163 °C

====

// reported melting point per item

SMI	melting point
Cl.Cn1c(=O)c2ccc(-c3ccc(N)nc3C(F)(F)F)cc2n2nc(-c3ccccc3)cc12	> 250 °C
CCc1nc(N)ccc1-c1ccc2c(=O)n(C)c3cc(-c4ccccc4)nn3c2c1.Cl	239 to 240 °C
Cl.Cn1c(=O)c2ccc(-c3ccc(N)nn3)cc2n2nc(-c3ccccc3)cc12	> 250 °C
Cn1cc(-c2ccc3c(=O)n(C)c4cc(-c5cccnc5)nn4c3c2)cn1	> 250 °C
Cc1cc(-c2ccc3c(=O)n(C)c4cc(C5CCCCCC5)nn4c3c2)cc(C)n1.Cl	> 250 °C
Cn1c(=O)c2ccc(-c3nn[nH]n3)cc2n2nc(-c3ccccc3)cc12	> 250 °C

====

// reported melting point per item
Structures can show the parent of a compound that is named as a salt.

COMPOUND	melting point
Cn1c(=O)c2ccc(-c3ccnc(C(F)(F)F)c3)cc2n2nc(-c3ccnc(C(F)(F)F)c3)cc12	> 250 °C
CCn1c(=O)c2ccc(-c3cccc(S(=O)(=O)N(C)C)c3)cc2n2nc(-c3ccccc3)cc12	197 to 198 °C
CCn1cc(-c2cc3n(C)c(=O)c4ccc(-c5ccc(N)nc5)cc4n3n2)cn1.Cl	226 to 238 °C
Cl.Nc1ccc(-c2ccc3c(=O)n(CC(F)(F)F)c4cc(-c5ccccc5)nn4c3c2)cn1	227 to 230 °C
CCCn1c(=O)c2ccc(-c3cc(C)nc(C)c3)cc2n2nc(CCOC)cc12.Cl	120 to 125 °C
Cl.Cn1c(=O)c2ccc(-c3ccc(N4CCOCC4)nc3)cc2n2nc(-c3ccccc3)cc12	194 to 196 °C
CN(C)S(=O)(=O)c1cccc(-c2ccc3c(=O)n(CC4CC4)c4cc(-c5ccccc5)nn4c3c2)c1	115 to 119 °C
CCn1c(=O)c2ccc(-c3ccc(N)nc3)cc2n2nc(C3CCCC3)cc12.Cl	> 250 °C
COc1ccc(-c2ccc3c(=O)n(C)c4cc(-c5ccccc5)nn4c3c2)cc1	> 250 °C
Cc1cc(-c2ccc3c(=O)n(C)c4cc(C5CCOC5)nn4c3c2)cc(C)n1.Cl (stereo not drawn)	> 250 °C
CCc1ncccc1-c1ccc2c(=O)n(C)c3cc(-c4ccnc(C(F)(F)F)c4)nn3c2c1.Cl	> 250 °C
CCCc1cc2n(C)c(=O)c3ccc(-c4ccc(N)nc4)cc3n2n1.Cl	> 250 °C
Cc1n[nH]cc1-c1ccc2c(=O)n(C)c3cc(-c4ccccc4)nn3c2c1	174 to 176 °C
Cc1cc(-c2cc3n(C)c(=O)c4ccc(-c5ccc(N)nc5)cc4n3n2)cc(C)n1 (as salt: salt)	> 250 °C
Cl.Nc1ccc(-c2ccc3c(=O)n(C4CCC4)c4cc(-c5ccccc5)nn4c3c2)cn1	203 to 205 °C
CCCn1c(=O)c2ccc(-c3cc(C)nc(C)c3)cc2n2nc(C3CCCC3)cc12.Cl	> 250 °C
CC(C)c1cc2n(C)c(=O)c3ccc(-c4ccc(N)nc4)cc3n2n1.Cl	240 to 244 °C
Cn1c(=O)c2ccc(-c3ccc4nccn4c3)cc2n2nc(-c3ccccc3)cc12	> 250 °C
Cn1c(=O)c2ccc(-c3cccc(-c4nn[nH]n4)c3)cc2n2nc(-c3ccccc3)cc12 (as salt: sodium)	> 250 °C
Cl.Nc1ccc(-c2ccc3c(=O)n(CC(F)(F)F)c4cc(C5CCOCC5)nn4c3c2)cn1	> 250 °C
Cc1ncccc1-c1ccc2c(=O)n(C)c3cc(C4CCOCC4)nn3c2c1.Cl	167 to 169 °C
Cc1ncccc1-c1ccc2c(=O)n(C)c3cc(-c4ccnc(C(F)(F)F)c4)nn3c2c1.Cl	> 250 °C
Cc1cc(-c2ccc3c(=O)n(C)c4cc(C5CCOCC5)nn4c3c2)cc(C)n1.Cl	> 250 °C
Cn1c(=O)c2ccc(-c3cccc(S(=O)(=O)NC(C)(C)CO)c3)cc2n2nc(C3CCOCC3)cc12	223 to 226 °C
Cn1c(=O)c2ccc(-c3ccc(F)nc3)cc2n2nc(-c3ccnc(C(F)(F)F)c3)cc12	> 250 °C
Cn1c(=O)c2ccc(-c3ccc(N)cc3)cc2n2nc(-c3ccccc3)cc12	173 to 175 °C
Cc1ccc(-c2ccc3c(=O)n(C)c4cc(-c5cc(C)nc(C)c5)nn4c3c2)cn1 (as salt: salt)	> 250 °C

All figures here come from patent US9434734B2.
